Target: purified recombinant human BTK protein (Homo sapiens (Human), UniProt Q06187)
Sequence (Q06187 whole entry): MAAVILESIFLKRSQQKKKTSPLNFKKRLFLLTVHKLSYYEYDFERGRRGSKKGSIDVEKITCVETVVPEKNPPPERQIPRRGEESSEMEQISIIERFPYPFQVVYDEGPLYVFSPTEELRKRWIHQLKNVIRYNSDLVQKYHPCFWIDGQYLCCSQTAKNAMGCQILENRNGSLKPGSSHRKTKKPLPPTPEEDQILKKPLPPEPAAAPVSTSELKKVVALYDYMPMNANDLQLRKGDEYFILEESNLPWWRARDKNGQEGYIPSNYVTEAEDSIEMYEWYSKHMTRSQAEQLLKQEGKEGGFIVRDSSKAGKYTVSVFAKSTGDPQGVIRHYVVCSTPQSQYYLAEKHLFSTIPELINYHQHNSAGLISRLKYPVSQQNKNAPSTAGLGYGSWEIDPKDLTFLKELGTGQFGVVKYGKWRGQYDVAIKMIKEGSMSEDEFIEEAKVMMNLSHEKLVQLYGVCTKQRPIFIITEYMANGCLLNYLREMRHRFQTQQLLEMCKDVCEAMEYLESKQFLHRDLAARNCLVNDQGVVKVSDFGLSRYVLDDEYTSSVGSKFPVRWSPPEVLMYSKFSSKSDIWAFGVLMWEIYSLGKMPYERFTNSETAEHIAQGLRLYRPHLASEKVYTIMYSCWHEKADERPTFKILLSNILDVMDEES
Assay: Measurement of BTK inhibitory activity (in vitro)
Settings: FL-PEPTIDE 2 substrate 1 μM, ATP 45 μM, 40 minutes at 25° C.
Description: With regard to the setting of the conditions for a method for measuring the inhibitory activity of a compound against BTK kinase activity in vitro, it is described in the consumable reagent supplies price list for LabChip (registered trademark) series of PerkinElmer, Inc. that FL-PEPTIDE 2 corresponds to a substrate peptide for the measurement of BTK kinase activity. Therefore, FL-PEPTIDE 2 was used as a substrate. […]
Parameter: IC50. Scope: all listed entries.
Give just the numeric value; nM need not be written.

Consider the reported IC50 for these molecules:
molecule=CN(C)C/C=C/C(=O)N1CC[C@@H](n2cc(C(=O)Nc3nc4cc(-c5ccccc5)ccc4o3)c3c(N)ncnc32)C1 number=1.34
molecule="C=CC(=O)N1CCCC(Cn2nc(C(=O)Nc3nc4ccccc4o3)c3c(N)ncnc32)C1 (stereo not shown)" number=14
molecule=C=CC(=O)N1CC[C@@H](n2nc(C(=O)Nc3nc4cc(C(F)(F)F)ccc4o3)c3c(N)ncnc32)C1 number=0.546
molecule=C=CC(=O)N1CCC[C@@H](n2nc(C(=O)Nc3nc4cc(Cl)ccc4o3)c3c(N)ncnc32)C1 number=0.415
molecule=C=CC(=O)N1CC[C@H](n2nc(C(=O)Nc3nc4ccccc4o3)c3c(N)ncnc32)C1 number=79
molecule=C=CC(=O)N1CCC[C@@H](n2nc(C(=O)Nc3nc4ncccc4o3)c3c(N)ncnc32)C1 number=1.37

Proceed to the following item.
Noted for CC1=CC(C)=[N+]2C1=Cc1ccc(CCC(=O)NCCN3CCN(C/C=C/C(=O)N4CCC[C@@H](n5nc(C(=O)Nc6nc7ccccc7o6)c6c(N)ncnc65)C4)CC3)n1[B-]2(F)F : its IC50 reads 31.4
